Kindly state folding stability dG unfold for each of the entries shown.
Test: folding stability dG unfold (combined trypsin and chymotrypsin); higher = more stable
Supply the numeric figure in kcal/mol, leaving out any unit text.

Task: Report folding stability dG unfold for SAETVTITLPGATITVEKVDGKWIATVTKVEPGADKVTVEVTLTKVDEDGNTTTVTETVTIDAKTGKVLSAG [r14_724_TrROS_Hall] please.
Output: 2.81

Task: Now the sequence SAGGGMNISVDPNQSVTIPVTRIENGVPVETTVTISLPAGSTISPEGDNIIINYPHTGQTITLPTTLISAGG [r13_275_JUSTAS]
Output: 0.862

Task: # iterate: SAGGSAGGSDLVRVEMLITKIVPGTGDPVETVKIEVEVPRSEIPKVIEEIPEGYEVTEIKFIPESAGGSAGG [r6_777_JUSTAS]
Output: 1.57

Task: Try this sequence next: SAGGSAGGSAKYILITAPKDNEEKVLEIAEELEKKYGVKLHKVERLPDGTVKALVEIFAPEKSAGGSAGGSA [r18_351_TrMRF]
Output: 0.438

====

Experiment: folding stability dG unfold from trypsin proteolysis; higher = more stable
So I've got a bunch of sequences here, and I need their folding stability dG unfold values.
Give just the numeric value; kJ/mol need not be written.

Task: Look up folding stability dG unfold: SKIKPGDVVTIMFPFPPGDPDQIREWAYWIARKLGPDVKVKSVEYNPNDPRYVQIEVRVPGGKITIHIMWSA [r9_1079_TrROS]
Output: 11.3

Task: Query DWLIRIKFTYKGPDGNKHEMKIIVRVPESPEQAKEEVEDIARMIMEEQGYPPENIKKIKVEVIPPGEELTPS [r1_159_TrROS] next
Output: 14.5

Task: // next record SAMVLDLTELLREKAAEIRKADPRPLTPEELRELAREAAEELAKETGKPITEIRVEETDEWPRITAVVLSAG [r14_147_JUSTAS]
Output: 4.37

Task: Another sequence: SAGGSAGGSMTIDGNALYEELGKDLPDEEKRKLFEEKAEEIAKKLGIPNMKVNINIKKPNEIKSAGGSAGGS [r12_666_JUSTAS]
Output: -0.892

Task: Would you mind doing SAGGSAGGSAGSMTPAEEKAREVEERLRREHPEFERVFVRVKEFRPETGEVTIEVEVEPRSAGGSAGGSAGG [r11_617_JUSTAS] as well?
Output: 1.22

Task: Now give it for SAGKMVKVEIVIDVPPEEITEEELKAILEEEAEEVEITFDEETGKITITVTVSEEEAEKLREALKELGASAG [r5_378_TrROS_Hall] too.
Output: 4.27

Task: Param item: SPESIEVQISKSSSTSPSGGSEEIYTVTVTYPATGKTLTKNFTATLNPDGTTNPNGSPEELAAKLAAELLAS [r1_77_JUSTAS]
Output: 5.71

Task: Another sequence: SAGGKLPLPPGTEVEFLFRSPLDPRRLYLVRVRFEPVPPDRLRLRPRVFNPETGEEVEFEFEVPLDEGSAGG [r13_268_TrMRF]
Output: 10.3

Task: Would you mind doing SAGGDPLVLEFDGVTVVYDPKTKTLVVFAPSSEVERLVKALGPKFEPLEIFELEDGSVVMLVRIKPESAGGS [r8_415_TrMRF] as well?
Output: 14.8

Task: Now consider SAGGSAGGSAGGPYVVKVKLKDGSVVELPVEEDHIPTIEDLVKAGIPPELIESVEIEPESAGGSAGGSAGGS [r10_565_TrMRF] and answer again.
Output: 10.7

Task: Also need SAGGKPKKKPPPVIEIVDIRVEYDPETKEVRITVKIRLPNGETLTLTITVPPGTTLEELLEKLKELLSSAGG [r13_578_TrROS_Hall] , thanks.
Output: 17.2

Task: Would you mind doing KIEIVEIKKENGKITIKVKNPIPNAKLIIYLFNPKGEIVSAKTHPGPEVELEIEVPENESFSVLVKLFPPKS [r1_382_TrMRF] as well?
Output: 14

Task: Record: SAGGFTIEFPLPPGESPDEIKDEIMDMVRPIADEHGFKNVKIPITNVRWQPPGRRRFTINIEIKFPGSAGGS [r8_184_TrROS]
Output: 3.03

Task: Field entry: SAGGSAGGSAGAPNIVVVTLTRDALFYNPVEGKWEVKPVTLTRAFTSKEEADKWLEEIGLSAGGSAGGSAGG [r11_984_TrMRF]
Output: 12.3

====

Assign folding stability dG unfold to each entry below.
Assay: folding stability dG unfold from trypsin proteolysis; higher = more stable
Lab book: enter the figure in kcal/mol, no units written.

Task: Could you share which folding stability dG unfold value was measured for SAGGSAEELLKKLKIVEVKEVDGKLYIEIEVDEPGLTVEEIKEILKELNLDVPIEVKEVVVVEEKESAGGSA [r15_599_TrROS_Hall] ?
Output: 1.69

Task: And for SAGGSAGGSAGKVVLYLPGDGTAWVLKVGDGEAVLEAEPEKVEELLEKIPGTEAVPVPGLSAGGSAGGSAGG [r11_57_TrMRF] ?
Output: 0.652

Task: Entry SMTITVKPENIEEVLAQIKALAAKHPKPVTITLEMSPEEVEKLRKALEDAGYKVEVDEKTGKVRIEIKVPSA [r9_600_TrROS_Hall] please
Output: 4.52

Task: Thanks! And SAGGMELVSRKRLSTSADGSVTYLYEYYDPKTGKRYTLVVTVKTPDGKIKPKVFTADSEEEAKKIALESAGG [r13_26_JUSTAS] ?
Output: 1.1

Task: One more sequence: SKKPDQPPKTVPIEIWVPLPPGQTPEWREMAEEFAEIFADELQQEGFKNVTVEVEPNKDGWVHIDAEVQVSA [r9_865_TrROS]
Output: 0.821

Task: Same question, SAETVVTPRRSTLPDGTRLEEDVVTLPDGTTVTPVRVVRRDPETGREVVEFWVRTTDPATGTTTTTPLPSAG [r14_324_JUSTAS] this time
Output: -0.198

Task: Consider next the sequence SAGGSAGGSAKEFVAKVITPDGKPFTIPFGGETEEEAIEKLKEAIKKAFPEYKGVKIELEEKSAGGSAGGSA [r18_434_TrMRF] in the same way.
Output: 0.873

====

For each entry below, report its folding stability dG unfold value.
Assay: folding stability dG unfold (combined trypsin and chymotrypsin); higher = more stable
The answer is to be given in kcal/mol; state only the numeric part.

Task: Bench note: what folding stability dG unfold did SAGGEEEEFEVVAEIEIEVDGKTYTITIVRDKETDEYRVEIRNKETGETKTITVSAEELEELLKALSSAGGS [r8_469_TrROS_Hall] show?
Output: 4.77

Task: Request: SAGGSLRQLIRALFKKKGIPIEPEKVDPNWVTFKVPNKDVKIDLPDGNKIEIKPNGYVRIRIPPDDLSAGGS [r8_297_TrROS]
Output: -0.1

Task: Next: SMKEVEKREFPDGTTVTFSKSSSPVITIKVTTYSPVPNTSELSSSESTYTFPLPPGKPLTLEEVLKKVLESA [r9_614_JUSTAS]
Output: 1.02

====

Assay: folding stability dG unfold from trypsin proteolysis; higher = more stable
Binary call on folding stability dG unfold: Criterion met from 5 kJ/mol upward, Criterion not met beneath that.

Task: Please indicate if the recorded folding stability dG unfold for SAGGSAGGSAGGPVRIVMKPSDIEYLLEKFGVEPLEIEEVEEDYVVVTITPEALKEAGLGSAGGSAGGSAGG [r7_587_TrMRF] meets or exceeds 5 kJ/mol.
Output: Criterion not met

Task: Do the same for SAGGKTIVIELTPEEVEELLKKLLEELKKKAEENPDAKITIVITTPDGRTYTITIDLKTGKITIEELPSAGG [r13_216_TrROS_Hall] please
Output: Criterion met

Task: Now the same for SGTRTVTVTGAVLSRLPDGTLVTDPGEAPVTVPVPPPKPRIEVPPELREKLREAAEKLGLELTEEDIETASA [r9_487_TrMRF]
Output: Criterion not met

Task: What do we get for SAGGKFDIMVKVEPPDGKEEELPIKFDSPEEIIEEARAIAEQHGPGDKLKVEIYYPGTGRPIEFEIPSAGGS [r8_107_TrROS] ?
Output: Criterion not met

Task: Similarly, SMTYSYGVDVSEDPNSDKTTATITTTSSDGSSSLSPEEVAAELAAEAKAAGYTVDVELRPGSVTITVTAPSA [r9_510_JUSTAS] ?
Output: Criterion not met

Task: Input SAGKIKIEKENGEVKIEIEVPEEEIEKLKKLLEELKKKGFEVEKVEVKVEKKEDGTVKVTIKVKIKPKPSAG [r5_739_TrROS_Hall]
Output: Criterion met

Task: Quick one: SAGGKTVTIKAKSLEDALKAIEALPSVDKVTITVEVNGKTVTITLTVKPPPPVKYELDKNGKLVKKEKSAGG [r13_183_TrROS_Hall]
Output: Criterion not met

Task: And then SAGGSAGGSSMSSTVEKEPDDVLIISTKVFFDTDTYSTLTTIVEVKPPLDPSNPELLARALGLLSAGGSAGG [r6_293_JUSTAS] , what is it?
Output: Criterion not met

Task: What do we get for SAPAVLLEEPDTLVEVEKLPDGSLLIRRVTKFPDGSVTVEISVIYPGGSLSVLESVTLNVPPEEPLPLLSAG [r14_42_JUSTAS] ?
Output: Criterion met

Task: Next up: SAGGVDKGPPDAEVSREVLPRKLPNGKELLEEIRTRVLASGSLLVDRTIRDPNSDKVESEELVDPGASAGGS [r8_129_JUSTAS]
Output: Criterion not met

Task: And SAGMNTITFEYKTKDHYVKIDVQVYPPNEGYIRISIEIYNKDGEPKKEVKITIPAPPGDPAVRDFLDQFSAG [r5_964_TrROS] ?
Output: Criterion met

Task: Let us now turn to SAGGSAGGSAKKTAVIELIDPKDPKPKTITIPFDLKDGKTSLEELKKLVPDYTITSIAVFDDSAGGSAGGSA [r18_494_TrMRF]
Output: Criterion not met

Task: Ok, now SIKFPDGSEIEFEWSEDKEYEVELPNGPIVKIKKVIKEGESWIVEVEFEDGSKVILEVDPNNPEEVQKAIAS [r1_66_TrMRF]
Output: Criterion met

Task: Query SAGGSAGGSKEIVIKVNVSEEDLKEKAEELLKKLEELLPPGAKIKKIEIEYDEETGELVIKIESAGGSAGGS [r12_308_TrROS_Hall] next
Output: Criterion met
